Cited source: patent US6670382B2

- Tested on: 20-HETE synthase derived from rat kidney microsome
- TEST_PROTOCOL: Inhibitory effect of 20-HETE synthase derived from rat kidney microsome
- Assay type: biochemical
- CONDITIONS: concentration at which 20-HETE production was inhibited to 50%; SHR rat kidney microsome
pIC50: −log10 of the molar value.
MEASURED_PARAMETER: pIC50

| COMPOUND | OBSERVED_MEASUREMENT |
| --- | --- |
| O/N=C/Nc1ccc(OCc2cccs2)nc1 | 8.03 |
| O/N=C/Nc1ccc(OCCSc2ccccn2)nc1 | 8.02 |
| CCSCCOc1ccc(N/C=N/O)cn1 | 8.00 |
| CC(C)CCOc1ccc(N/C=N/O)cn1 | 8.17 |
| O/N=C/Nc1ccc(OCc2ccsc2)nc1 | 8.07 |

P = CC1(C)COC(CCOc2ccc(N/C=N/O)cn2)OC1
Q = C#CCCCOc1ccc(N/C=N/O)cn1
R = O/N=C/Nc1ccc(OCC2CCCO2)nc1 (centres unmarked)
[in] Put the compounds in ascending order of pIC50. Please, when replying, give the labels in the order that was requested.
[out] R, Q, P
